- Test system: Saccharomyces cerevisiae
- experimentalProtocol: protein stability index of tFT-peptide fusion (C-terminal peptide) (PSI (0-1 scale)); higher = more stable (slower turnover)
- particulars: genetic background: das1 deletion; temperature: 30 C
readoutType: protein stability index
Form rule: numeric answer, no unit written next to it.

The sequence `FFTLSTVKLLRV` , tested on Saccharomyces cerevisiae, showed protein stability index of 0.427

The sequence `VLFLLLFVSRVA` , tested on Saccharomyces cerevisiae, showed protein stability index of 0.259

The sequence `TLFSFLLVFVFG` , tested on Saccharomyces cerevisiae, showed protein stability index of 0.228

Next:
The sequence `SRSFFRRLLFCF` , tested on Saccharomyces cerevisiae, showed protein stability index of 0.679

The sequence `EGVVLLVDCVAT` , tested on Saccharomyces cerevisiae, showed protein stability index of 0.301

The sequence `GPVRTEFWLYVW` , tested on Saccharomyces cerevisiae, showed protein stability index of 0.55

The sequence `LFFSPRRLSPPT` , tested on Saccharomyces cerevisiae, showed protein stability index of 0.695

The sequence `LFVVHCFLSVSS` , tested on Saccharomyces cerevisiae, showed protein stability index of 0.0648

The sequence `FRTTGQAPPSKP` , tested on Saccharomyces cerevisiae, showed protein stability index of 0.633

The sequence `VVCFVVCGFYLG` , tested on Saccharomyces cerevisiae, showed protein stability index of 0.261

The sequence `RVSIIYLGVLIS` , tested on Saccharomyces cerevisiae, showed protein stability index of 0.26

The sequence `RLVCPFYIACVW` , tested on Saccharomyces cerevisiae, showed protein stability index of 0.509

The sequence `VRFPVFFIILFL` , tested on Saccharomyces cerevisiae, showed protein stability index of 0.15

The sequence `RKNIKISKAGIG` , tested on Saccharomyces cerevisiae, showed protein stability index of 0.343

The sequence `VCFFSSSCFLLV` , tested on Saccharomyces cerevisiae, showed protein stability index of 0.507

###

- System: Saccharomyces cerevisiae
- experimentalProtocol: protein stability index of tFT-peptide fusion (C-terminal peptide) (PSI (0-1 scale)); higher = more stable (slower turnover)
- particulars: genetic background: wild type; temperature: 30 C
Outcome: True for protein stability index of at least 0.7; False for anything lower.

Given the entry `CPPLEWSLRYPV` , answer whether its protein stability index meets or surpasses 0.7. True

Given the entry `MKKIGNKLKKEK` , answer whether its protein stability index meets or surpasses 0.7. False

Given the entry `LWGMSDQGGGFR` , answer whether its protein stability index meets or surpasses 0.7. False

Given the entry `GCVVLNTVAFIC` , answer whether its protein stability index meets or surpasses 0.7. False

Given the entry `LRRVHRIKLQVC` , answer whether its protein stability index meets or surpasses 0.7. False

Could you now look at the following sequence, please?
Given the entry `IQFKDKAVSETE` , answer whether its protein stability index meets or surpasses 0.7. False

###

- System: Saccharomyces cerevisiae
- experimentalProtocol: protein stability index of tFT-peptide fusion (C-terminal peptide) (PSI (0-1 scale)); higher = more stable (slower turnover)
- particulars: genetic background: cdc53-1; temperature: 37 C
readoutType: protein stability index

Reported protein stability index ( `SSAPPTLHTRPS` ) = 0.709

Reported protein stability index ( `DLFVFFVFHFFL` ) = 0.532

Reported protein stability index ( `ALSRFFSVFLLV` ) = 0.671

###

- Tested on: Saccharomyces cerevisiae
- experimentalProtocol: protein stability index of tFT-peptide fusion (C-terminal peptide) (PSI (0-1 scale)); higher = more stable (slower turnover)
- particulars: genetic background: wild type; temperature: 30 C
readoutType: protein stability index
Form rule: numeric answer, no unit written next to it.

Look over these answered cases.
Reported protein stability index ( `VSVRLAINRKEW` ) = 0.674

Reported protein stability index ( `SRRKMRILQIVD` ) = 0.623

Reported protein stability index ( `HRFEEGAPAPTE` ) = 0.704

Reported protein stability index ( `ISLLIFSPTLFS` ) = 0.687

Reported protein stability index ( `GDWLVVRLVPSK` ) = 0.728

Reported protein stability index ( `SPRRVAVAGETS` ) = 0.68

Next:
Reported protein stability index ( `FTFPLPPSLLLV` ) = 0.347

Reported protein stability index ( `SVSRGAPSGSLG` ) = 0.688

Reported protein stability index ( `KSYTGSRGQRVL` ) = 0.701

###

- Test system: Saccharomyces cerevisiae
- experimentalProtocol: protein stability index of tFT-peptide fusion in deletion strain of DAS1 (PSI (0-1 scale)); higher = more stable (slower turnover)
# protein stability index per entry

Reported protein stability index ( `AVWRVGLWRGAS` ) = 0.678

Reported protein stability index ( `CTSCGYKERTNN` ) = 0.699

Reported protein stability index ( `KKHYKGQKQKIN` ) = 0.618

Reported protein stability index ( `LKILYQKMNHQN` ) = 0.679

Reported protein stability index ( `RRWRVGLWRGAS` ) = 0.684

Reported protein stability index ( `KKHKKGQKEKIN` ) = 0.606

Reported protein stability index ( `PDFRNHLIKLLN` ) = 0.619

Reported protein stability index ( `VRGAWGGWRLVG` ) = 0.692

###

- System: Saccharomyces cerevisiae
- experimentalProtocol: protein stability index of tFT-peptide fusion (C-terminal peptide) (PSI (0-1 scale)); higher = more stable (slower turnover)
- particulars: genetic background: cdc53-1; temperature: 37 C
# protein stability index per entry
Form rule: numeric answer, no unit written next to it.

Reported protein stability index ( `FILLHLLGTIRS` ) = 0.487

Next:
Reported protein stability index ( `SVVWIRFVGVRV` ) = 0.507

Reported protein stability index ( `LCLLPVCLWDVG` ) = 0.513

###

- Test system: Saccharomyces cerevisiae
- experimentalProtocol: protein stability index of tFT-peptide fusion in deletion strain of DAS1 (PSI (0-1 scale)); higher = more stable (slower turnover)
# protein stability index per entry
Form rule: numeric answer, no unit written next to it.

Look over these answered cases.
The sequence `RLIQPLPVQFRN` , tested on Saccharomyces cerevisiae, showed protein stability index of 0.609

The sequence `RLIQPLPVWFLN` , tested on Saccharomyces cerevisiae, showed protein stability index of 0.609

Turning to the following sequence.
The sequence `REIQPLPVQFLN` , tested on Saccharomyces cerevisiae, showed protein stability index of 0.61

###

# protein stability index per entry
- Test system: Saccharomyces cerevisiae
- experimentalProtocol: protein stability index of tFT-peptide fusion (C-terminal peptide) (PSI (0-1 scale)); higher = more stable (slower turnover)
- particulars: genetic background: wild type; temperature: 30 C
Form rule: numeric answer, no unit written next to it.

Reported protein stability index ( `LLLLFPSPLFIR` ) = 0.216

Reported protein stability index ( `IHCLSIVVHGLS` ) = 0.475

Reported protein stability index ( `FLFLFIFYFFCC` ) = 0.314

Next:
Reported protein stability index ( `CFVICVCLCFGR` ) = 0.21

Reported protein stability index ( `WGGIASLVASAA` ) = 0.259

Reported protein stability index ( `VCLWAIHLSGCW` ) = 0.449

###

- System: Saccharomyces cerevisiae
- experimentalProtocol: protein stability index of tFT-peptide fusion (C-terminal peptide) (PSI (0-1 scale)); higher = more stable (slower turnover)
- particulars: genetic background: wild type; temperature: 30 C
readoutType: protein stability index
Form rule: numeric answer, no unit written next to it.

Look over these answered cases.
Reported protein stability index ( `PPPSPPPYRLPP` ) = 0.7

Reported protein stability index ( `RKDKKKKGSKEE` ) = 0.69

Reported protein stability index ( `AGFGLRGWMIPP` ) = 0.688

Reported protein stability index ( `TGSLSSTCPPAT` ) = 0.717

Reported protein stability index ( `RRWAFWGAAAAR` ) = 0.702

Reported protein stability index ( `PPPRPSPPPSRP` ) = 0.684

Reported protein stability index ( `APPTSPLPIPSP` ) = 0.698

Reported protein stability index ( `GEVVRGGEWGLD` ) = 0.686

Next:
Reported protein stability index ( `LHPAPPAAPTRP` ) = 0.711

Reported protein stability index ( `PHPAPRRPPLPP` ) = 0.687

Reported protein stability index ( `KDKEQKKIKKSI` ) = 0.681

###

# protein stability index per entry
- Tested on: Saccharomyces cerevisiae
- experimentalProtocol: protein stability index of tFT-peptide fusion (C-terminal peptide) (PSI (0-1 scale)); higher = more stable (slower turnover)
- particulars: genetic background: wild type; temperature: 30 C
Form rule: numeric answer, no unit written next to it.

Look over these answered cases.
Reported protein stability index ( `VECVPFAPPRPH` ) = 0.68

Reported protein stability index ( `SGPRRECVPRSV` ) = 0.682

Next:
Reported protein stability index ( `RYHPRSHVLGRD` ) = 0.682

Reported protein stability index ( `RCLPSASYPACS` ) = 0.691

Reported protein stability index ( `FLFTLPPPPRCH` ) = 0.709

Reported protein stability index ( `GGSLVRGAGVRS` ) = 0.686

Reported protein stability index ( `WGGTRCGGREVV` ) = 0.692

Where do these numbers come from? They come from the supplement of paper PMC10724198.
